Sourced from PubChem BioAssay AID1159580

# test.method.notes: chemical genetic growth profiling, strain panel (AID 1159580);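 note: tested at 20 µM; growth read once vehicle control cultures reached saturation at 30 °C; 1 = growth at the plate median or of vehicle wells; lower values mean less growth of the strain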
# setup.conditions: S. cerevisiae deletion strains, growth OD, locus YPL051W, strain arl3
The whole screen tested about 5,500 compounds, of which about 2,000 (36%) were called active. Not shown: some 18% with an inconclusive outcome. Cut-off read from the data, not from the text of the source: active = normalized growth mostly below about 0.91 (no sharp cut-off); inconclusive = no clear call, values can overlap the other calls; inactive = mostly above about 0.92. This is one part of the list.
Could you please pick one outcome from this set? TRUE for active, FALSE for inactive

Solved cases (2 shown):
>>> print(df.to_string())
                                   compound  category_label
0  CCN(Cc1ccncc1)C(=O)C(CO)c1ccccc1 (centres undefined)           FALSE
1  C[C@@H]1CC[C@@]2(NC1)O[C@H]1C[C@H]3C4CC=C5C[C@@H](O)CC[C@]5(C)C4CC[C@]3(C)C1[C@@H]2C (some centres undefined)            TRUE

Prompt: GET /call?item= CC(C)[N+](C)(CCC(C(N)=O)(c1ccccc1)c1ccccc1)C(C)C returns the recorded outcome of this test.
Response: FALSE

Prompt: GET /call?item= COC(=O)[C@@]1(C)CCC[C@]2(C)c3ccc(O)c(C(C)C)c3CCC12 (some centres undefined) returns the recorded outcome of this test.
Response: TRUE

Prompt: GET /call?item= OCC(O)C(O)C(O)C(O)C(O)CO (centres undefined) returns the recorded outcome of this test.
Response: FALSE

Prompt: GET /call?item= CC(=O)O[C@@H]1CC2C(C)(C)C(=O)C=C[C@]2(C)C2CC[C@@]3(C)[C@H](c4ccoc4)OC(=O)[C@H]4O[C@]43[C@@]21C (some centres undefined) returns the recorded outcome of this test.
Response: FALSE

Prompt: GET /call?item= Oc1ccc2c(c1)OCC1(O)Cc3cc(O)c(O)cc3C21 (centres undefined) returns the recorded outcome of this test.
Response: FALSE

Prompt: GET /call?item= CC1CC[C@@]2(OC1)O[C@H]1CC3C4CC[C@@H]5C[C@@H](O)CC[C@]5(C)C4CC[C@]3(C)[C@H]1[C@@H]2C (some centres undefined) returns the recorded outcome of this test.
Response: FALSE

Prompt: GET /call?item= COC(=O)c1c(C)cc(O)cc1O returns the recorded outcome of this test.
Response: FALSE

Prompt: GET /call?item= O=C1[O][Bi][O]c2ccccc21 returns the recorded outcome of this test.
Response: FALSE

Prompt: GET /call?item= CC(C)c1c(O)ccc2c1CCC1[C@@](C)(C=O)CCC[C@]21C (some centres undefined) returns the recorded outcome of this test.
Response: TRUE

Prompt: GET /call?item= Oc1cc2c(cc1O)C1c3ccc(O)c(O)c3OCC1(O)C2 (centres undefined) returns the recorded outcome of this test.
Response: FALSE

* * *

# test.method.notes: chemical genetic growth profiling, strain panel (AID 1159580);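 note: tested at 20 µM; growth read once vehicle control cultures reached saturation at 30 °C; 1 = growth at the plate median or of vehicle wells; lower values mean less growth of the strain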
# setup.conditions: S. cerevisiae deletion strains, growth OD, locus YIL073C, strain SPO22, active compounds read low
Hit rate of the full screen: of about 5,500 compounds, about 2,000 (36%) were called active. Another 18% or so got no clear call; they are omitted. The list shows a part of the results.
quantity.measured: normalized growth
Answers are plain numbers.

For orientation, consider the following solved cases.
In [3]: df
Out[3]:
                                   compound  observed_result
0  CC1(C)C(=O)C=C[C@@]2(C)C1C[C@@H](O)[C@]1(C)C2CC[C@@]2(C)[C@H](c3ccoc3)OC(=O)[C@H]3O[C@]321 (some centres undefined)            0.928
1  CC(=O)OCC1=C(C(=O)O)N2C(=O)[C@@H](NC(=O)Cc3cccs3)[C@H]2SC1             1.04
2  CC1(C)C(=O)C=C[C@@]2(C)C1CC(=O)[C@]1(C)C2CC[C@@]2(C)[C@H](c3ccoc3)OC(=O)[C@H]3O[C@]321 (some centres undefined)             1.04

Let's switch to this compound now.
Prompt: // lookup normalized growth for CC1(C)O[C@H]2CC(=O)OC[C@]23[C@H]2CC[C@@]4(C)[C@H](c5ccoc5)OC(=O)[C@H]5O[C@]54[C@]2(C)C(=O)C[C@@H]13
Response: 0.932
